- study_system: Recombinant human cathepsin C/DPP1
- assay_details: Inhibition effect test of DPP1 enzyme activity
- condition_summary: recombinant human cathepsin C/DPP1, Gly-Arg-AMC substrate 12.5 μM, 25° C. 60 minutes; read-out: IC50, inhibitory activity on DPP1 enzyme

>  <molecular_string>
CN1CCOc2ccc(-c3ccc(C[C@H](C#N)NC(=O)[C@@H]4CNCCCO4)c(F)c3)cc21

>  <IC50 / nM>
3.65

$$$$
>  <molecular_string>
Cn1nnc2ccc(-c3ccc(C[C@@H](C#N)NC(=O)[C@@H]4CNCCCO4)cc3)cc21

>  <IC50 / nM>
10.8

$$$$
>  <molecular_string>
Cn1nc(F)c2ccc(-c3ccc(C[C@H](C#N)NC(=O)[C@@H]4CNCCCO4)c(F)c3)cc21

>  <IC50 / nM>
1.23

$$$$
>  <molecular_string>
N#C[C@H](Cc1ccc(-c2ccc3nccn3c2)cc1F)NC(=O)[C@@H]1CNCCCO1

>  <IC50 / nM>
20.4

$$$$
>  <molecular_string>
N#C[C@@H](Cc1ccc(-c2ccc3nccn3c2)cc1F)NC(=O)[C@@H]1CNCCCO1

>  <IC50 / nM>
28.1

$$$$
>  <molecular_string>
Cn1ncc2ccc(-c3ccc(C[C@@H](C#N)NC(=O)[C@@H]4CNCCCO4)c(F)c3)cc21

>  <IC50 / nM>
3.57

$$$$
>  <molecular_string>
CN1Cc2cc(-c3ccc(C[C@@H](C#N)NC(=O)[C@@H]4CNCCCO4)cc3)ccc2C1=O

>  <IC50 / nM>
28.3

$$$$
>  <molecular_string>
N#C[C@@H](Cc1ccc(-c2ccc3cnn(C4CCNCC4)c3c2)cc1F)NC(=O)[C@@H]1CNCCCO1

>  <IC50 / nM>
0.76

$$$$

----------
Property: pIC50; scope: individual compounds
- study_system: Recombinant human cathepsin C/DPP1
- assay_details: Inhibition effect test of DPP1 enzyme activity
- condition_summary: recombinant human cathepsin C/DPP1, Gly-Arg-AMC substrate 12.5 μM, 25° C. 60 minutes; read-out: IC50, inhibitory activity on DPP1 enzyme
pIC50: −log10 of the molar value.

>  <molecular_string>
Cn1nnc2ccc(-c3ccc(C[C@@H](C#N)NC(=O)[C@@H]4CNCCCO4)c(F)c3)cc21

>  <pIC50>
8.60

$$$$
>  <molecular_string>
Cn1ncc2ccc(-c3ccc(C[C@H](C#N)NC(=O)[C@@H]4CNCCCO4)c(Cl)c3)cc21

>  <pIC50>
8.04

$$$$
>  <molecular_string>
CN1CCC(n2ncc3ccc(-c4ccc(C[C@H](C#N)NC(=O)[C@@H]5CNCCCO5)c(F)c4)cc32)CC1

>  <pIC50>
9.00

$$$$

----------
- assay_details: Mouse tissue (bone marrow) distribution
- Type: in vivo
- condition_summary: CD-1 mice, plasma, 5 mg/kg single oral administration; read-out: Plasma Peak concentration Cmax

>  <molecular_string>
Cn1ncc2ccc(-c3ccc(C[C@@H](C#N)NC(=O)[C@@H]4CNCCCO4)c(F)c3)cc21

>  <quantity_unit>
nM

>  <Cmax>
2300

$$$$

----------
Property: IC50; scope: individual compounds
- study_system: DPP1 of U937 cells (Homo sapiens (Human), UniProt P53634)
- Sequence (P53634 25-134): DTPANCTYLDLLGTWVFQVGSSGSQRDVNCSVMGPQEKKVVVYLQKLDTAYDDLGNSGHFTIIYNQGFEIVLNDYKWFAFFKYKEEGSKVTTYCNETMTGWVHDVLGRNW
- Sequence (P53634 231-394): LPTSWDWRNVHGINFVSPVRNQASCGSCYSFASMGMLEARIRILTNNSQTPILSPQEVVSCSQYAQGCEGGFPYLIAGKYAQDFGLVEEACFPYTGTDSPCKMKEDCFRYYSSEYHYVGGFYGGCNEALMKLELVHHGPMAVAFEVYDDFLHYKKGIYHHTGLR
- Sequence (P53634 395-463): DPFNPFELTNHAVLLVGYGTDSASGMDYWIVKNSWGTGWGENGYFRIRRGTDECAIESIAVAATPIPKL
- assay_details: Activity test of inhibiting DPP1 in U937 cells
- condition_summary: Gly-Phe-AFC probe, read-out: IC50, inhibitory activity on DPP1 of U937 cells
recorded_metric: IC50 (nM)

>  <molecular_string>
CN1Cc2cc(-c3ccc(C[C@@H](C#N)NC(=O)[C@@H]4CNCCCO4)cc3)ccc2C1=O

>  <recorded_metric>
IC50

>  <quantity_unit>
nM

>  <recorded_number>
9.32

$$$$
>  <molecular_string>
N#C[C@@H](Cc1ccc(-c2cnc3cc[nH]c3c2)cc1F)NC(=O)[C@@H]1CNCCCO1

>  <recorded_metric>
IC50

>  <quantity_unit>
nM

>  <recorded_number>
9.27

$$$$
>  <molecular_string>
Cn1nnc2ccc(-c3ccc(C[C@@H](C#N)NC(=O)[C@@H]4CNCCCO4)c(F)c3)cc21

>  <recorded_metric>
IC50

>  <quantity_unit>
nM

>  <recorded_number>
2.49

$$$$
>  <molecular_string>
Cn1ncc2ccc(-c3ccc(C[C@@H](C#N)NC(=O)[C@@H]4CNCCCO4)cc3)cc21

>  <recorded_metric>
IC50

>  <quantity_unit>
nM

>  <recorded_number>
8.95

$$$$
>  <molecular_string>
Cn1ncc2ccc(-c3ccc(C[C@@H](C#N)NC(=O)[C@@H]4CNCCCO4)c(F)c3)cc21

>  <recorded_metric>
IC50

>  <quantity_unit>
nM

>  <recorded_number>
2.4

$$$$
>  <molecular_string>
N#C[C@@H](Cc1ccc(-c2ccc3nccn3c2)cc1F)NC(=O)[C@@H]1CNCCCO1

>  <recorded_metric>
IC50

>  <quantity_unit>
nM

>  <recorded_number>
2.79

$$$$

// data source = patent US20240150335A1
